- Test system: Eubacterium sp.
- experimental_protocol: Antimicrobial activity against Eubacterium sp. assessed as percent resistant isolates after 48 hrs by agar dilution method
- Type: functional
Activity reference

{"compound": "C[C@@H](O)[C@H]1C(=O)N2C(C(=O)O)=C(SCCNC=N)C[C@H]12 [IMIPENEM ANHYDROUS]", "assay_target": "Eubacterium sp.", "Activity, %": 0}
{"compound": "CCC[C@@H]1C[C@@H](C(=O)N[C@@H]([C@H]2O[C@H](SC)[C@H](O)[C@@H](O)[C@H]2O)[C@H](C)Cl)N(C)C1", "assay_target": "Eubacterium sp.", "Activity, %": 15}
{"compound": "COc1c(N2C[C@@H]3CCCN[C@@H]3C2)c(F)cc2c(=O)c(C(=O)O)cn(C3CC3)c12", "assay_target": "Eubacterium sp.", "Activity, %": 0}
{"compound": "O=C(N[C@H](CO)[C@H](O)c1ccc([N+](=O)[O-])cc1)C(Cl)Cl", "assay_target": "Eubacterium sp.", "Activity, %": 0}

* * *

- System: Bacteroides ovatus
- experimental_protocol: Antimicrobial activity against Bacteroides ovatus after 48 hrs by agar dilution method
- Format: functional
measured_property: log10 MIC50 (log10 of the value in µg/mL)

{"compound": "O=C(N[C@H](CO)[C@H](O)c1ccc([N+](=O)[O-])cc1)C(Cl)Cl [CHLORAMPHENICOL]", "log10 MIC50": 0.60}
{"compound": "C[C@@H](O)[C@H]1C(=O)N2C(C(=O)O)=C(S[C@@H]3CN[C@H](C(=O)N(C)C)C3)[C@H](C)[C@H]12 [MEROPENEM]", "log10 MIC50": -0.60}
{"compound": "C[C@@H](O)[C@H]1C(=O)N2C(C(=O)O)=C(SCCNC=N)C[C@H]12 [IMIPENEM ANHYDROUS]", "log10 MIC50": -0.30}
{"compound": "CCN1CCN(C(=O)N[C@@H](C(=O)N[C@@H]2C(=O)N3[C@@H]2SC(C)(C)[C@@H]3C(=O)O)c2ccccc2)C(=O)C1=O [PIPERACILLIN]", "log10 MIC50": 2.11}
{"compound": "CO[C@@]1(NC(=O)Cc2cccs2)C(=O)N2C(C(=O)O)=C(COC(N)=O)CS[C@@H]21 [CEFOXITIN]", "log10 MIC50": 1.51}
{"compound": "Cc1ncc([N+](=O)[O-])n1CCO [METRONIDAZOLE]", "log10 MIC50": 0.30}
{"compound": "COc1c(N2C[C@@H]3CCCN[C@@H]3C2)c(F)cc2c(=O)c(C(=O)O)cn(C3CC3)c12 [MOXIFLOXACIN]", "log10 MIC50": 0.30}

* * *

- System: Hoylesella oralis
- experimental_protocol: Antimicrobial activity against Prevotella oralis assessed as percent susceptible isolates after 48 hrs by agar dilution method
- Assay type: functional
Use 90% as the dividing line for Activity, with the line itself on the met side and lower values as not met.

{"molecule": "CO[C@@]1(NC(=O)C2SC(=C(C(N)=O)C(=O)O)S2)C(=O)N2C(C(=O)O)=C(CSc3nnnn3C)CS[C@@H]21 (some centres undefined)", "label_value": "not met"}
{"molecule": "Cc1ncc([N+](=O)[O-])n1CCO", "label_value": "met"}
{"molecule": "C[C@@H](O)[C@H]1C(=O)N2C(C(=O)O)=C(S[C@@H]3CN[C@H](C(=O)N(C)C)C3)[C@H](C)[C@H]12", "label_value": "met"}
{"molecule": "CCN1CCN(C(=O)N[C@@H](C(=O)N[C@@H]2C(=O)N3[C@@H]2SC(C)(C)[C@@H]3C(=O)O)c2ccccc2)C(=O)C1=O", "label_value": "not met"}
{"molecule": "CCC[C@@H]1C[C@@H](C(=O)N[C@@H]([C@H]2O[C@H](SC)[C@H](O)[C@@H](O)[C@H]2O)[C@H](C)Cl)N(C)C1", "label_value": "not met"}
{"molecule": "O=C(N[C@H](CO)[C@H](O)c1ccc([N+](=O)[O-])cc1)C(Cl)Cl", "label_value": "met"}
{"molecule": "COc1c(N2C[C@@H]3CCCN[C@@H]3C2)c(F)cc2c(=O)c(C(=O)O)cn(C3CC3)c12", "label_value": "not met"}
{"molecule": "C[C@@H](O)[C@H]1C(=O)N2C(C(=O)O)=C(SCCNC=N)C[C@H]12 [IMIPENEM ANHYDROUS]", "label_value": "met"}

* * *

- Test system: Clostridioides difficile
- experimental_protocol: Antimicrobial activity against Clostridium difficile after 48 hrs by agar dilution method
- Type: functional

{"compound": "Cc1ncc([N+](=O)[O-])n1CCO", "MIC50 [µg/mL]": 1}
{"compound": "CN[C@H](CC(C)C)C(=O)N[C@H]1C(=O)N[C@@H](CC(N)=O)C(=O)N[C@H]2C(=O)N[C@H]3C(=O)N[C@H](C(=O)N[C@H](C(=O)O)c4cc(O)cc(O)c4-c4cc3ccc4O)[C@H](O)c3ccc(c(Cl)c3)Oc3cc2cc(c3O[C@@H]2O[C@H](CO)[C@@H](O)[C@H](O)[C@H]2O[C@H]2C[C@](C)(N)[C@H](O)[C@H](C)O2)Oc2ccc(cc2Cl)[C@H]1O", "MIC50 [µg/mL]": 0.5}
{"compound": "CCN1CCN(C(=O)N[C@@H](C(=O)N[C@@H]2C(=O)N3[C@@H]2SC(C)(C)[C@@H]3C(=O)O)c2ccccc2)C(=O)C1=O", "MIC50 [µg/mL]": 4}
{"compound": "O=C(N[C@H](CO)[C@H](O)c1ccc([N+](=O)[O-])cc1)C(Cl)Cl", "MIC50 [µg/mL]": 4}
{"compound": "CO[C@@]1(NC(=O)C2SC(=C(C(N)=O)C(=O)O)S2)C(=O)N2C(C(=O)O)=C(CSc3nnnn3C)CS[C@@H]21 (stereo not given in full)", "MIC50 [µg/mL]": 8}

* * *

- Tested on: Bacteroides fragilis
- experimental_protocol: Antimicrobial activity against Bacteroides fragilis assessed as percent resistant isolates after 48 hrs by agar dilution method
- Format: functional
# label = Fulfilled if Activity < 5% else Not fulfilled

{"compound": "CCC[C@@H]1C[C@@H](C(=O)N[C@@H]([C@H]2O[C@H](SC)[C@H](O)[C@@H](O)[C@H]2O)[C@H](C)Cl)N(C)C1", "label_value": "Not fulfilled"}
{"compound": "O=C(N[C@H](CO)[C@H](O)c1ccc([N+](=O)[O-])cc1)C(Cl)Cl", "label_value": "Fulfilled"}
{"compound": "C[C@@H](O)[C@H]1C(=O)N2C(C(=O)O)=C(SCCNC=N)C[C@H]12 [IMIPENEM ANHYDROUS]", "label_value": "Fulfilled"}
{"compound": "C[C@@H](O)[C@H]1C(=O)N2C(C(=O)O)=C(S[C@@H]3CN[C@H](C(=O)N(C)C)C3)[C@H](C)[C@H]12", "label_value": "Fulfilled"}
{"compound": "CO[C@@]1(NC(=O)C2SC(=C(C(N)=O)C(=O)O)S2)C(=O)N2C(C(=O)O)=C(CSc3nnnn3C)CS[C@@H]21 (some centres undefined)", "label_value": "Not fulfilled"}
{"compound": "COc1c(N2C[C@@H]3CCCN[C@@H]3C2)c(F)cc2c(=O)c(C(=O)O)cn(C3CC3)c12", "label_value": "Not fulfilled"}
{"compound": "Cc1ncc([N+](=O)[O-])n1CCO", "label_value": "Fulfilled"}
{"compound": "CCN1CCN(C(=O)N[C@@H](C(=O)N[C@@H]2C(=O)N3[C@@H]2SC(C)(C)[C@@H]3C(=O)O)c2ccccc2)C(=O)C1=O", "label_value": "Not fulfilled"}

* * *

- Test system: Peptoniphilus asaccharolyticus
- experimental_protocol: Antimicrobial activity against Peptoniphilus asaccharolyticus assessed as percent resistant isolates after 48 hrs by agar dilution method
- Assay type: functional
measured_property: Activity (%)

{"compound": "C[C@@H](O)[C@H]1C(=O)N2C(C(=O)O)=C(S[C@@H]3CN[C@H](C(=O)N(C)C)C3)[C@H](C)[C@H]12 [MEROPENEM]", "unit_descriptor": "%", "quantitative_readout": 0}
{"compound": "CO[C@@]1(NC(=O)C2SC(=C(C(N)=O)C(=O)O)S2)C(=O)N2C(C(=O)O)=C(CSc3nnnn3C)CS[C@@H]21 (some centres undefined) [CEFOTETAN]", "unit_descriptor": "%", "quantitative_readout": 0}
{"compound": "COc1c(N2C[C@@H]3CCCN[C@@H]3C2)c(F)cc2c(=O)c(C(=O)O)cn(C3CC3)c12 [MOXIFLOXACIN]", "unit_descriptor": "%", "quantitative_readout": 0}
{"compound": "C[C@@H](O)[C@H]1C(=O)N2C(C(=O)O)=C(SCCNC=N)C[C@H]12 [IMIPENEM ANHYDROUS]", "unit_descriptor": "%", "quantitative_readout": 0}
{"compound": "Cc1ncc([N+](=O)[O-])n1CCO [METRONIDAZOLE]", "unit_descriptor": "%", "quantitative_readout": 0}
{"compound": "CCC[C@@H]1C[C@@H](C(=O)N[C@@H]([C@H]2O[C@H](SC)[C@H](O)[C@@H](O)[C@H]2O)[C@H](C)Cl)N(C)C1 [CLINDAMYCIN]", "unit_descriptor": "%", "quantitative_readout": 33}
{"compound": "O=C(N[C@H](CO)[C@H](O)c1ccc([N+](=O)[O-])cc1)C(Cl)Cl [CHLORAMPHENICOL]", "unit_descriptor": "%", "quantitative_readout": 0}
{"compound": "CCN1CCN(C(=O)N[C@@H](C(=O)N[C@@H]2C(=O)N3[C@@H]2SC(C)(C)[C@@H]3C(=O)O)c2ccccc2)C(=O)C1=O [PIPERACILLIN]", "unit_descriptor": "%", "quantitative_readout": 0}
{"compound": "CO[C@@]1(NC(=O)Cc2cccs2)C(=O)N2C(C(=O)O)=C(COC(N)=O)CS[C@@H]21 [CEFOXITIN]", "unit_descriptor": "%", "quantitative_readout": 0}
